All figures here come from ChEMBL document CHEMBL1132554.

- target_or_system: Trypanothione reductase (Trypanosoma cruzi, UniProt P28593)
- Sequence (P28593 whole entry): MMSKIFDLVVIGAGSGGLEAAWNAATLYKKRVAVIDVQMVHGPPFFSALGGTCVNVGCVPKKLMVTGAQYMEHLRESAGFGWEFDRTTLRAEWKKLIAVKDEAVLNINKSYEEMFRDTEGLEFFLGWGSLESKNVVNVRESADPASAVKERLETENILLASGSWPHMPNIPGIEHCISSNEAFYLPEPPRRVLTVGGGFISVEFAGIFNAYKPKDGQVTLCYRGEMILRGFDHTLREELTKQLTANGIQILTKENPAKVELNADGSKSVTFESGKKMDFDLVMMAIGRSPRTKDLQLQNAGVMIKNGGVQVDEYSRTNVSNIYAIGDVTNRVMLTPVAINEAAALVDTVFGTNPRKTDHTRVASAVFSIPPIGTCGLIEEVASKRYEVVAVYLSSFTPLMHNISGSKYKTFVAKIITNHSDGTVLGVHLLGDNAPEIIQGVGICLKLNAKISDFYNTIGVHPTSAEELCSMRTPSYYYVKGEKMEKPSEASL
- method: The mixed type inhibitory activity against trypanothione reductase was evaluated from Lineweaver Burk plots and Cornish-Bowdwn plots.
pKi: −log10 of the molar value.
quantity_kind: pKi

a = CCN(CC)CCCCSc1c2ccc(Cl)cc2nc2ccc(OC)cc12
b = CCN(CC)CCSc1c2ccc(Cl)cc2nc2ccc(OC)cc12
Incoming: Between the entries labelled a and b , which has a larger pKi value on record? To answer, give the label that identifies your chosen option.
Outgoing: a
(a: 4.68, b: 4.08)
